- system-tested: P2Y purinoceptor 11 (Homo sapiens, UniProt Q96G91)
- Sequence (Q96G91 whole entry): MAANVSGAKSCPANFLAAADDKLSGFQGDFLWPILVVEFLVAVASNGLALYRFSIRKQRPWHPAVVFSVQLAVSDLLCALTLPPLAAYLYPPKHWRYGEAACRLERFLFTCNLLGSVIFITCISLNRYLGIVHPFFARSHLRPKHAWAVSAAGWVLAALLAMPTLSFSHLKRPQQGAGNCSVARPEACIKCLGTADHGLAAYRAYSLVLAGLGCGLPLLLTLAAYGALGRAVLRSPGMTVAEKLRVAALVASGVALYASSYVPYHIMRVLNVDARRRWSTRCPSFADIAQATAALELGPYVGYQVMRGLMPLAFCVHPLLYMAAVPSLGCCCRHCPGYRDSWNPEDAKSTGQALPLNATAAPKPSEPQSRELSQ
- experimental-protocol: Agonist activity at human GFP-tagged P2Y11R transfected in human 1321N1 cells assessed as induction of intracellular calcium mobilization by fluorescence assay
- Format: functional, cell-based
- condition-info: read-out: EC50
readout-label: EC50 (nM)

compound | value-reported
B[P@](=O)(OC[C@H]1O[C@@H](n2cnc3c(N)nc(Cl)nc32)[C@H](O)[C@@H]1O)OP(=O)(O)C(Cl)(Cl)P(=O)(O)O | 130
B[P@@](=O)(OC[C@H]1O[C@@H](n2cnc3c(N)nc(Cl)nc32)[C@H](O)[C@@H]1O)OP(=O)(O)O | 3680
CSc1nc(N)c2ncn([C@@H]3O[C@H](COP(=O)(O)OP(=O)(O)O)[C@H](O)[C@H]3OC(=O)c3ccccc3)c2n1 | 1500
Nc1ncnc2c1ncn2[C@@H]1O[C@H](COP(=O)(O)OP(=O)(O)O)[C@@H](O)[C@H]1O [ADENOSINE DIPHOSPHATE] | 1700

---

The reader will find reported IC50 values listed item by item below.
- experimental-protocol: Antioxidant activity assessed as inhibiton of Fe2+-induced Fenton reaction-mediated hydroxyl radical formation from H2O2 measured for 150 secs by ESR analysis in presence of DMPO
- Format: functional
readout-label: IC50 (µM)

compound-structure | value-reported
B[P@](=O)(OC[C@H]1O[C@@H](n2cnc3c(N)ncnc32)[C@H](O)[C@@H]1O)OP(=O)(O)OP(=O)(O)OP(=O)(O)OP(=O)(O)OC[C@H]1O[C@@H](n2cnc3c(N)ncnc32)[C@H](O)[C@@H]1O | 47
Nc1ncnc2c1ncn2[C@@H]1O[C@H](COP(=O)(O)OP(=O)(O)OP(=O)(O)OP(=O)(O)OP(=O)(O)OC[C@H]2O[C@@H](n3cnc4c(N)ncnc43)[C@H](O)[C@@H]2O)[C@@H](O)[C@H]1O | 75
B[P@](=O)(OC[C@H]1O[C@@H](n2cnc3c(N)ncnc32)[C@H](O)[C@@H]1O)OP(=O)(O)O | 41
BP(=O)(OP(=O)(O)OP(=O)(O)OC[C@H]1O[C@@H](n2cnc3c(N)ncnc32)[C@H](O)[C@@H]1O)OP(=O)(O)OP(=O)(O)OC[C@H]1O[C@@H](n2cnc3c(N)ncnc32)[C@H](O)[C@@H]1O | 161
B[P@](=O)(OC[C@H]1O[C@@H](n2cnc3c(N)nc(Cl)nc32)[C@H](O)[C@@H]1O)OP(=O)(O)C(Cl)(Cl)P(=O)(O)O | 60

---

- experimental-protocol: Half life in human serum at 0.1 mg after 6 hrs by HPLC analysis
- Type: ADME, cell-free
readout-label: half-life (h)

compound-structure | value-reported
B[P@@](=O)(OC[C@H]1O[C@@H](n2cnc3c(N)nc(Cl)nc32)[C@H](O)[C@@H]1O)OP(=O)(O)O | 7

---

- system-tested: P2Y purinoceptor 1 (Rattus norvegicus)
- Sequence (P49651 whole entry): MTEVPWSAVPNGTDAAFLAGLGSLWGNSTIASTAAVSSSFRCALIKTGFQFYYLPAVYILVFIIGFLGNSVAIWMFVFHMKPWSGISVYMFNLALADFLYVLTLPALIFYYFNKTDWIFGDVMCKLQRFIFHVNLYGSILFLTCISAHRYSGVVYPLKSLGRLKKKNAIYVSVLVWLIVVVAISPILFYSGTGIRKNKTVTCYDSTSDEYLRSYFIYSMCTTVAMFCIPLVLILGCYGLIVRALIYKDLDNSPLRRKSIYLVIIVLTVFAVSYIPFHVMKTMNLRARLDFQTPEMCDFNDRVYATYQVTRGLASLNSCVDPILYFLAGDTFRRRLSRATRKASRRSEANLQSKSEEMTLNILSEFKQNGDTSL
- experimental-protocol: Agonist activity at rat brain P2Y1R transfected in HEK293 cells assessed as induction of intracellular calcium mobilization by fluorescence assay
readout-label: EC50 (nM)

compound-structure | value-reported
B[P@@](=O)(OC[C@H]1O[C@@H](n2cnc3c(N)nc(Cl)nc32)[C@H](O)[C@@H]1O)OP(=O)(O)OP(=O)(O)O | 4.5
